Consider the following molecules and their measured Inhibition(%) readings.
test system: YAP-TEAD; test: Luciferase assay of YAP-TEAD binding inhibition (TEAD luciferase reporter 8XGTIIC in HEK293T cells); format: cell-based; conditions: 10 μM, 24 hours, luciferase normalized with β-galactosidase
Test Readout: Inhibition(%)

[[record]]
molecule = "O=C(Nc1ccc2c3c(cccc13)C(=O)N2CCc1c[nH]c2ccccc12)C1CCCCN1S(=O)(=O)c1cccs1 (stereo not shown) [Compound 13]"
observed_measurement = "50%"

[[record]]
molecule = "COCCCN1C(=O)c2cccc3c(NC(=O)C4CCCN(S(=O)(=O)c5ccc(-c6ccccn6)s5)C4)ccc1c23 (stereo not shown) [Compound 119]"
observed_measurement = "68%"

[[record]]
molecule = "COCCCN1C(=O)c2cccc3c(NC(=O)C4CCCN(S(=O)(=O)c5ccc(-c6ccccc6)s5)C4)ccc1c23 (stereo not shown) [Compound 158]"
observed_measurement = "61%"

[[record]]
molecule = "COCCCN1C(=O)c2cccc3c(NC(=O)C4CCCCN4S(=O)(=O)c4c(Cl)sc(Cl)c4Br)ccc1c23 (stereo not shown) [Compound 66]"
observed_measurement = "59%"

[[record]]
molecule = "COCCCN1C(=O)c2cccc3c(NC(=O)C4CCCCN4S(=O)(=O)c4sc(NC(C)=O)nc4C)ccc1c23 (stereo not shown) [Compound 43]"
observed_measurement = "50%"

[[record]]
molecule = "COCCCN1C(=O)c2cccc3c(NC(=O)C4CCCN(S(=O)(=O)c5scnc5C)C4)ccc1c23 (stereo not shown) [Compound 64]"
observed_measurement = "76%"

[[record]]
molecule = "COCCCN1C(=O)c2cccc3c(NC(=O)C4CCCCN4S(=O)(=O)c4cccc(F)c4)ccc1c23 (stereo not shown) [Compound 162]"
observed_measurement = "74%"


---

test system: YAP-TEAD; test: Luciferase assay of YAP-TEAD binding inhibition (TEAD luciferase reporter 8XGTIIC in HEK293T cells); format: cell-based; details: 10 μM, 24 hours, luciferase normalized with β-galactosidase
# binarize Inhibition(%): threshold 80% inclusive, high side Satisfied, low side Not satisfied

[[record]]
compound = "COCCCN1C(=O)c2cccc3c(NC(=O)C4CCCCN4S(=O)(=O)c4ccc5c(c4)CCO5)ccc1c23 (stereo not shown)"
category = "Not satisfied"

[[record]]
compound = "COCCCN1C(=O)c2cccc3c(NC(=O)C4CCCN(S(=O)(=O)c5ccc(Cl)s5)C4)ccc1c23 (stereo not shown)"
category = "Satisfied"

[[record]]
compound = "COCCCN1C(=O)c2cccc3c(NC(=O)C4CCCCN4S(=O)(=O)c4ccc(-c5ccccc5)s4)ccc1c23 (stereo not shown)"
category = "Satisfied"

[[record]]
compound = "COCCCN1C(=O)c2cccc3c(NC(=O)C4CCCN(S(=O)(=O)c5cccc6nsnc56)C4)ccc1c23 (stereo not shown)"
category = "Satisfied"

[[record]]
compound = "CS(=O)(=O)N1CCC(CCN2C(=O)c3cccc4c(NC(=O)C5CCCCN5S(=O)(=O)c5ccc6c(c5)CCO6)ccc2c34)CC1 (stereo not shown)"
category = "Not satisfied"

[[record]]
compound = "COCCCN1C(=O)c2cccc3c(NC(=O)C4CCCN(S(=O)(=O)c5cccc6cccnc56)C4)ccc1c23 (stereo not shown)"
category = "Satisfied"

[[record]]
compound = "COCCCN1C(=O)c2cccc3c(NC(=O)C4CCCCN4S(=O)(=O)c4cc5c(s4)CCCC5)ccc1c23 (stereo not shown)"
category = "Satisfied"

